Reference source for all entries: PubChem BioAssay AID1159580

assay.remarks: chemical genetic growth profiling, strain panel (AID 1159580);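 note: tested at 20 µM; growth read once vehicle control cultures reached saturation at 30 °C; lower values mean less growth of the strain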
measurement.context: S. cerevisiae deletion strains, growth OD, locus YLR113W, strain HOG1
About 2,000 (36%) of roughly 5,500 compounds were called active. Inconclusive results (about 18%) are left out. Cut-off read from the data, not from the text of the source: active = normalized growth mostly below about 0.91 (no sharp cut-off); inconclusive = no clear call, values can overlap the other calls; inactive = mostly above about 0.92. This is one part of the list.
Answer with one of the outcomes given here: t = active, f = inactive

As a guide, the following entries are already answered.
compound	label.value
COC(=O)CC1C(C)(C)C(OC(C)=O)[C@@H]2[C@@H](OC(C)=O)[C@]34O[C@@]2(O)[C@]1(C)C3CC[C@]1(C)C4=CC(=O)O[C@H]1c1ccoc1 (stereo not given in full)	f
Nc1ccc(S(=O)(=O)Nc2ncccn2)cc1	f
O=C(Oc1cccc2cccnc12)c1ccccc1	f
CC(=O)N1CCCC1C(=O)O (stereo not given)	f
O=C(O)CCc1nc(-c2ccccc2)c(-c2ccccc2)o1	t
N#Cc1ccc2[nH]cc(CCN(Cc3ccccc3)Cc3ccccc3)c2c1	f

Entry "O=C(Oc1ccccc1C(=O)O)c1ccccc1O" : call = ? f

Entry "C/C=C(\C)C(=O)O[C@@H]1c2c(ccc3ccc(=O)oc23)OC(C)(C)[C@@H]1OC(C)=O" : call = ? f

Entry "ONC(=Nc1ccccc1Cl)c1ccccc1Cl" : call = ? t

Entry C[C@@H]1CC[C@@]23CCC4(C)[C@@](C=CC5[C@@]6(C)CCC(=O)C(C)(C)C6CC[C@]54C)(OC2=O)C3[C@H]1C (stereo not given in full) : call = ? f

---

assay.remarks: chemical genetic growth profiling, strain panel (AID 1159580);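 note: tested at 20 µM; growth read once vehicle control cultures reached saturation at 30 °C; lower values mean less growth of the strain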
measurement.context: S. cerevisiae deletion strains, growth OD, locus YER016W, strain bim1, active compounds read low
Screen size: about 5,500 compounds; about 2,000 (36%) were called active. Roughly 18% stayed inconclusive and do not appear here. The list shows a part of the results.
So basically, if normalized growth comes in under 1 it's T, and if it's 1 or more it's F.

> print(dat)
                                   compound  label.value
1                CSc1nc(NC(C)C)nc(NC(C)C)n1            T
2  Cc1c(OCC(F)(F)F)ccnc1CS(=O)c1nc2ccccc2[nH]1 (stereo unspecified)            F

# check: normalized growth < 1 for "CC[C@@]1(O)C(=O)OCc2c1cc1n(c2=O)Cc2cc3ccccc3nc2-1" T

---

assay.remarks: chemical genetic growth profiling, strain panel (AID 1159580);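 note: tested at 20 µM; growth read once vehicle control cultures reached saturation at 30 °C; lower values mean less growth of the strain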
measurement.context: S. cerevisiae deletion strains, growth OD, locus YOR001W, strain rrp6
About 2,000 (36%) of roughly 5,500 compounds were called active. Not shown: some 18% with an inconclusive outcome. No stated cut-off is given here; in the data, active means normalized growth mostly below about 0.91 (no sharp cut-off); inconclusive means no clear call, values can overlap the other calls; inactive means mostly above about 0.92. The list shows a part of the results.
Answer with one of the outcomes given here: active, inactive

As a guide, the following entries are already answered.
compound	label.value
C=CCSC[C@@H](N)C(=O)O	inactive
COc1ccc(-c2cc(=O)c3c(O)cc(O)cc3o2)cc1	inactive
C/C=C/CC(C)C(O)C1C(=O)NC(CC)C(=O)N(C)CC(=O)N(C)C(CC(C)C)C(=O)NC(C(C)C)C(=O)N(C)C(CC(C)C)C(=O)NC(C)C(=O)NC(C)C(=O)N(C)C(CC(C)C)C(=O)N(C)C(CC(C)C)C(=O)N(C)C(C(C)C)C(=O)N1C (stereo not drawn)	inactive

Entry Cc1c(OCC(F)(F)F)ccnc1CS(=O)c1nc2ccccc2[nH]1 (stereo not drawn) : call = ? inactive

Entry "COc1cc2c(cc1OC)-c1c(oc3cc(O)cc(O)c3c1=O)CO2" : call = ? inactive

Entry "COc1ccc(-c2cc(=O)c3c(O)c(OC)c(O[C@H]4O[C@H](CO[C@@H]5O[C@@H](C)[C@H](O)[C@@H](O)[C@H]5O)[C@@H](O)[C@H](O)[C@H]4O)cc3o2)cc1" : call = ? inactive

Entry "OC1(c2ccc(Cl)c(C(F)(F)F)c2)CCN(CCCC(c2ccc(F)cc2)c2ccc(F)cc2)CC1" : call = ? active

Entry "Nc1nc(/C(=C/CC(=O)O)C(=O)N[C@@H]2C(=O)N3C(C(=O)O)=CCS[C@H]23)cs1" : call = ? inactive

Entry "COc1ccc(-c2cc(=O)c3c(OC)c(OC)c(OC)c(OC)c3o2)cc1OC" : call = ? inactive

Entry "COc1ccccc1N1CCN(CCCNc2cc(=O)n(C)c(=O)n2C)CC1" : call = ? inactive

Entry "O=C(CCCN1CCC(O)(c2ccc(Cl)cc2)CC1)c1ccc(F)cc1" : call = ? active

Entry "COc1cccc2c1CCC1=CC(=O)CC[C@@]12C" : call = ? inactive
